- Test system: HOP-92 NSCLC
- experimentalDetails: NCI tumour cell line growth inhibition, 48 h
propertyMeasured: TGI (µM)
Please reply with the bare figure in µM and do not write the unit itself.

- compound: "C=C1CC[C@@H]2[C@](C)(COC(C)=O)[C@H](OC(C)=O)CC[C@@]2(C)[C@@H]1CC(Nc1ccc(S(=O)(=O)Nc2ncccn2)cc1)C1=CCOC1=O (some centres undefined)"
  value: 8.85
- compound: "Cc1ccc(C(=O)Nc2ccc(CN3CCN(C)CC3)c(C(F)(F)F)c2)cc1C#Cc1cnc(N)c2ccccc12"
  value: 2.08
- compound: "CCN(CC)CC(=O)O[C@]1(CC)C(=O)OCc2c1cc1n(c2=O)Cc2cc3ccccc3nc2-1"
  value: 2.12

Problem: Given Cc1ccc(NC(=O)c2sc3nc(C)c(C(O)c4ccccc4)cc3c2N)cc1 (centres undefined) , state its recorded TGI.
Solution: 20.4

Problem: I have this compound here, C=C1C(=O)O[C@H]2[C@H]1CC/C(COC(=O)c1cc3ccccc3s1)=C\CC[C@@]1(C)O[C@@H]21 , and I need its recorded TGI.
Solution: 3.49

Problem: Give its TGI value. Item: NC(CCC(=O)O)C(=O)N1CCN(c2nc(N3CCCC3)c3nc(Cl)c(NCc4ccccc4)nc3n2)CC1 (centres undefined)
Solution: 32.2

Problem: Which TGI value belongs to CC[CH2][Sn]([Cl])([Cl])[CH2]CC.Oc1ccccc1C=NCCN=Cc1ccccc1O ?
Solution: 8.8

---

- Test system: SK-MEL-2 melanoma
- experimentalDetails: NCI tumour cell line growth inhibition, 48 h
Items are presented alongside their recorded TGI.
Give just the numeric value; µM need not be written.

- structureSmilesString: "CCCCCCCCCCN(CCCCCCCCCC)C(=O)COc1c2cc(C(C)(C)C)cc1Cc1cc(C(C)(C)C)cc(c1OCC(=O)N(CCCCCCCCCC)CCCCCCCCCC)Cc1cc(C(C)(C)C)cc(c1OCC(=O)N(CCCCCCCCCC)CCCCCCCCCC)Cc1cc(C(C)(C)C)cc(c1OCC(=O)N(CCCCCCCCCC)CCCCCCCCCC)C2"
  propertyMeasured: "TGI"
  unitInfo: "µM"
  value: 20.4

Problem: Consider the molecule shown here: Cc1ccc(C(=O)Nc2ccc(CN3CCN(C)CC3)c(C(F)(F)F)c2)cc1C#Cc1cnc(N)c2ccccc12 What is its recorded TGI?
Solution: 1.55

---

- System: CCRF-CEM leukemia
- experimentalDetails: NCI tumour cell line growth inhibition, 48 h
Each entry below carries its reported TGI.

- compound: "CO[C@H]1C=C[C@@]23c4cc5c(cc4CO[C@]2(O)CN(C)[C@H]3C1)OCO5"
  assayedSystem: "CCRF-CEM leukemia"
  TGI: "> 100 µM"
- compound: "CC(C)(C)C1=CC(=C(c2ccc(-c3c4nc(c(-c5ccc(C(=C6C=C(C(C)(C)C)C(=O)C(C(C)(C)C)=C6)c6cc(C(C)(C)C)c(O)c(C(C)(C)C)c6)cc5)c5ccc([nH]5)c(-c5ccc(C(=C6C=C(C(C)(C)C)C(=O)C(C(C)(C)C)=C6)c6cc(C(C)(C)C)c(O)c(C(C)(C)C)c6)cc5)c5nc(c(-c6ccc(C(=C7C=C(C(C)(C)C)C(=O)C(C(C)(C)C)=C7)c7cc(C(C)(C)C)c(O)c(C(C)(C)C)c7)cc6)c6ccc3[nH]6)C=C5)C=C4)cc2)c2cc(C(C)(C)C)c(O)c(C(C)(C)C)c2)C=C(C(C)(C)C)C1=O"
  assayedSystem: "CCRF-CEM leukemia"
  TGI: "> 100 µM"
- compound: "FC(F)(F)c1nc(-c2ccccc2)oc1Sc1nnc(Sc2oc(-c3ccccc3)nc2C(F)(F)F)s1"
  assayedSystem: "CCRF-CEM leukemia"
  TGI: "34.8 µM"
- compound: "CN1C(=O)c2ccccc2NC(=O)C12O[C@@H]2c1cccc(O)c1 (stereo partly specified)"
  assayedSystem: "CCRF-CEM leukemia"
  TGI: "> 100 µM"
- compound: "Fc1ccc(C2SCc3nc4ccccc4n32)cc1Cl (stereo unspecified)"
  assayedSystem: "CCRF-CEM leukemia"
  TGI: "87.4 µM"

We next turn to a different compound, shown below.
Problem: Write down the reported TGI of O=c1[nH]nc(Cc2ccccc2)[nH]1 , test system: CCRF-CEM leukemia.
Solution: > 100 µM

Origin of values: PubChem BioAssay (NCI)
